Molecular target: PRMT5/MEP50 (Homo sapiens)
Construct: Expressed full-length human Flag-PRMT5/6His-MeP50 protein complex was purified; made in house; host or cells: Spodoptera frugiperda (SF9) insect cells, baculovirus (pDEST8)
Assay: PRMT5 Biochemical Assay (PRMT5/MEP50 enzyme assay on peptide substrate, 3H-SAM Flashplate)
Conditions: Table D-2; read-out: Biochemical IC50
Measured quantity: IC50

Observe how each entry below is paired with its result.
Compound | Result
O=C(Nc1cccc(OCC(O)CN2CCc3ccccc3C2)c1)c1ccnnc1 (stereo not shown) | 1 to 10 µM
OC(COCc1cc(-c2ccc(Cl)cc2)no1)CN1CCc2ccccc2C1 (stereo not shown) | 0.101 to 1 µM
CC(C)(C)OC(=O)N1CCCC(OCC(O)CN2CCc3ccccc3C2)C1 (stereo not shown) | 1 to 10 µM
CN(C(=O)c1cccnc1)c1cccc(OCC(O)CN2CCc3ccccc3C2)c1 (stereo not shown) | 1 to 10 µM
OC(COc1cccc(-c2ccc3c(c2)OCO3)c1)CN1CCc2ccccc2C1 (stereo not shown) | 0.101 to 1 µM

Prompt: Give its IC50 value. Item: CN1CC(n2cnc3ccc(-c4cccc(OCC(O)CN5CCc6ccccc6C5)c4)cc32)C1 (stereo not shown)
Response: < 0.1 µM

Prompt: Fill in: IC50 of OC(COc1cccc(-c2cc(C(F)(F)F)ccc2Cl)c1)CN1CCc2ccccc2C1 (stereo not shown) is ___
Response: 0.101 to 1 µM

Prompt: Record request: IC50 value, item Cn1cnc2ccc(-c3cccc(OCC(O)CN4CCc5ccccc5C4Cc4ccccc4)c3)cc21 (stereo not shown)
Response: > 40 µM

Prompt: Recorded IC50 of O=C(Nc1cccc(OCC(O)CN2CCc3ccccc3C2)c1)c1cncnc1 (stereo not shown) , please.
Response: 1 to 10 µM

====

Each entry below carries its recorded pEC50.
Tested on: Z-138 cells
Assay: Z-138 Proliferation Assay (Cell Titer Glo, 5 days)
Format: cell-based
Settings: Homo sapiens, Table D-2
pEC50: −log10 of the molar value.

Observe how each entry below is paired with its result.
Molecule | Result
Cc1nn(-c2ccccc2)c(C)c1COCC(O)CN1CCc2ccccc2C1 (stereo not drawn) | < 4.40
Cn1cnc2ccc(-c3ccnc(NCC(O)CN4CCc5ccccc5C4)c3)nc21 (stereo not drawn) | 5.00 to 6.00
COc1ccc(-c2cccc(OCC(O)CN3CCc4ccccc4C3)c2)cc1Cl (stereo not drawn) | < 4.70
COc1ccc(-c2cccc(OCC(O)CN3CCc4ccccc4C3)c2)cc1 (stereo not drawn) | 4.40 to 5.00

Prompt: What value of pEC50 has been reported for the following molecule? Cn1cnc2ccc(-c3cccc(NCC(O)CN4CCc5ccccc5C4)n3)cc21 (stereo not drawn)
Response: < 4.70

Prompt: Which measured pEC50 value corresponds to OC(COc1cccc(-c2cnc3ccccc3c2)c1)CN1CCc2ccccc2C1 (stereo not drawn) ?
Response: 4.40 to 5.00

Prompt: Which value of pEC50 has been reported for OC(COc1cccc(-c2ccc3ncn(C4CCNCC4)c3c2)c1)CN1CCc2ccccc2C1 (stereo not drawn) in the records?
Response: 5.00 to 6.00

Prompt: # query: pEC50 of entry OC(COc1cccc(-c2ccccc2C(F)(F)F)c1)CN1CCc2ccccc2C1 (stereo not drawn)
Response: < 4.70

====

Biological target: PRMT5/MEP50 (Homo sapiens, UniProt O14744)
Construct: Expressed full-length human Flag-PRMT5/6His-MeP50 protein complex was purified; made in house; host or cells: Spodoptera frugiperda (SF9) insect cells, baculovirus (pDEST8)
Sequence (O14744 with tags, fused parts or gaps): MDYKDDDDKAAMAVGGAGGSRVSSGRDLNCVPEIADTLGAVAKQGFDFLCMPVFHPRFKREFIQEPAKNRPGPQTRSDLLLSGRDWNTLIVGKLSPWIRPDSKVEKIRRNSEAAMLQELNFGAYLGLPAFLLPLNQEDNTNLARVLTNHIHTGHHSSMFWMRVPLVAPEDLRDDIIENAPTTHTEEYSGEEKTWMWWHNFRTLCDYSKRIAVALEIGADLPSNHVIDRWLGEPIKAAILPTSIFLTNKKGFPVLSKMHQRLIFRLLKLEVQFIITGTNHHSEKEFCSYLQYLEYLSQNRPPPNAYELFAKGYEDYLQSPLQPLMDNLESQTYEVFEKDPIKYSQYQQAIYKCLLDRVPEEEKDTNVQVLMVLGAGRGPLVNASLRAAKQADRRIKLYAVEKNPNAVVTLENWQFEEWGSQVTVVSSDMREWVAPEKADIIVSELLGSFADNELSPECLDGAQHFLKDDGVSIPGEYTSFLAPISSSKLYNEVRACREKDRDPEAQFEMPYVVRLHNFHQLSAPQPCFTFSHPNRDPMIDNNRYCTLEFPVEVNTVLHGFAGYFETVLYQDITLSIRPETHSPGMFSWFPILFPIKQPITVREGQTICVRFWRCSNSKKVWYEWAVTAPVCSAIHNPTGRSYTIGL
Sequence (Q9BQA1 with tags, fused parts or gaps partner limits assumed): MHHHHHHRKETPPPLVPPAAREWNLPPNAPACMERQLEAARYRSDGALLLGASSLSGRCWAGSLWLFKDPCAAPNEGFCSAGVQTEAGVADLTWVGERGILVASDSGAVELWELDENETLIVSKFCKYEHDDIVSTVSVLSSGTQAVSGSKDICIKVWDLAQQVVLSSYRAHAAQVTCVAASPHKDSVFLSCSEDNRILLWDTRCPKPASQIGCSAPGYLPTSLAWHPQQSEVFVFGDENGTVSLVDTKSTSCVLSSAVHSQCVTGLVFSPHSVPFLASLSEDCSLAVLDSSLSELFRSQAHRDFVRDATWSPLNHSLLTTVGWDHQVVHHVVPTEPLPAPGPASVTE
Experiment: PRMT5 Biochemical Assay (PRMT5/MEP50 enzyme assay on peptide substrate, 3H-SAM Flashplate)
Conditions: Table D-2; read-out: Biochemical IC50
pIC50: −log10 of the molar value.
Measured quantity: pIC50

Compound | pIC50
CS(=O)(=O)c1ccccc1-c1cccc(OCC(O)CN2CCc3ccccc3C2)c1 (centres unmarked) | 6.00 to 7.00
Cn1nccc1C(=O)Nc1cccc(OCC(O)CN2CCc3ccccc3C2)c1 (centres unmarked) | 5.00 to 6.00
OCc1ccc(-c2cccc(OCC(O)CN3CCc4ccccc4C3)c2)cc1 (centres unmarked) | 5.00 to 6.00

Prompt: // lookup pIC50 | system=PRMT5/MEP50 (Homo sapiens, UniProt O14744) | key= OC(COc1cccc(-c2ccc3ncn(C4CCNC4)c3c2)c1)CN1CCc2ccccc2C1 (centres unmarked)
Response: > 7.00

Prompt: Request - read-out pIC50 | tested on PRMT5/MEP50 (Homo sapiens, UniProt O14744) | compound CC(=O)N1CCC(n2ccc3cnc(-c4cccc(OCC(O)CN5CCc6ccccc6C5)c4)nc32)CC1 (centres unmarked)
Response: 6.00 to 7.00

Prompt: Query the reported pIC50 for PRMT5/MEP50 (Homo sapiens, UniProt O14744); item: Cn1cc2ccc(-c3ccnc(NCC(O)CN4CCc5ccccc5C4)c3)cc2n1 (centres unmarked)
Response: > 7.00

Prompt: Entry OC(COC1CCCCCC1)CN1CCc2ccccc2C1 (centres unmarked) , system PRMT5/MEP50 (Homo sapiens, UniProt O14744): what pIC50 was measured?
Response: 5.00 to 6.00

Prompt: For PRMT5/MEP50 (Homo sapiens, UniProt O14744), provide pIC50 of OC(COc1ccc(-c2ccn[nH]2)cc1)CN1CCc2ccccc2C1 (centres unmarked) please.
Response: 5.00 to 6.00

Prompt: Identify the measured pIC50 of CC1Cc2ccccc2CN1CC(O)COc1cccc(-c2ccc3ncn(C)c3c2)c1 (centres unmarked) for PRMT5/MEP50 (Homo sapiens, UniProt O14744).
Response: 5.00 to 6.00
